These data points were gathered from patent US20190248900A1.

# TARGET DESC: T1, M6
# T1 construct: also called PD1 mutant M6
# RUN DESCRIPTION: ELISA, 1 ug/ml
READOUT LABEL: OD490

[
  {
    "BINDER": "PD1-45D6 (antibody, V domains shown, scFv-phage in the screening ELISA; whole IgG in the other assays) VH: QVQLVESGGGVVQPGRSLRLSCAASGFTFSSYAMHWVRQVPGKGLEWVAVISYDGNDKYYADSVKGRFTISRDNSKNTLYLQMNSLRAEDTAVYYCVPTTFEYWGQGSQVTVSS VL: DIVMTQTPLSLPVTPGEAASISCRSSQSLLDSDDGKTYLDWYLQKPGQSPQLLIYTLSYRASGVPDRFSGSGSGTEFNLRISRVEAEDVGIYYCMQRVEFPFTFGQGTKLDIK",
    "READOUT LABEL": "OD490",
    "VALUE REPORTED": 3.9
  },
  {
    "BINDER": "PD1-41C9 (antibody, V domains shown, scFv-phage in the screening ELISA; whole IgG in the other assays) VH: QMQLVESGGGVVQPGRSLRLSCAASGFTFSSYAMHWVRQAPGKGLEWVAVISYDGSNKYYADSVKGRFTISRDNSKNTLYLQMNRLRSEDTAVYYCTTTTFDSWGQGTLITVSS VL: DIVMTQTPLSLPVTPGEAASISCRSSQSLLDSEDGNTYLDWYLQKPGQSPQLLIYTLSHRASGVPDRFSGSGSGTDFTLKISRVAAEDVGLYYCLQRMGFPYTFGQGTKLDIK",
    "READOUT LABEL": "OD490",
    "VALUE REPORTED": 3.6
  },
  {
    "BINDER": "PD1-52E8 (antibody, V domains shown, scFv-phage in the screening ELISA; whole IgG in the other assays) VH: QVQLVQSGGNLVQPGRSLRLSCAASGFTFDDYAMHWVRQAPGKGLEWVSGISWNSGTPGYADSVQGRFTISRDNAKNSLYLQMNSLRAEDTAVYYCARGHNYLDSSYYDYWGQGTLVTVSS VL: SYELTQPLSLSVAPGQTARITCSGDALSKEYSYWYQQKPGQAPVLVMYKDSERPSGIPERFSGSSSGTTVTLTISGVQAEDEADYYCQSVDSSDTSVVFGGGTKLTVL",
    "READOUT LABEL": "OD490",
    "VALUE REPORTED": 3.4
  },
  {
    "BINDER": "PD1-49A2 (antibody, V domains shown, scFv-phage in the screening ELISA; whole IgG in the other assays; also called Parent 49A2) VH: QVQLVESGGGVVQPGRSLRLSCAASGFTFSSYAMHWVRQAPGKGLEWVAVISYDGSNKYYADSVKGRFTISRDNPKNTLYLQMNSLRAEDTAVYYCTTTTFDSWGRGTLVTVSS VL: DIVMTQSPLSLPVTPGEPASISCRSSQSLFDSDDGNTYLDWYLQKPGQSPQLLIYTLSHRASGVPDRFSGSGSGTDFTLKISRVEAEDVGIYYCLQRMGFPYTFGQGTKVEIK",
    "READOUT LABEL": "OD490",
    "VALUE REPORTED": 3.9
  }
]
